system: CFI female mice; assay: Antilipogenic evaluation of test compounds - mouse study (fat pad and body weight, 12-day feeding); type: in vivo; settings: 50 ppm in diet, 12 days
Kindly state % Change in Body Weight vs controls for each of the entries shown.

| molecule | assay.target | measurement.label | result |
| --- | --- | --- | --- |
| CC(C)NCC(O)c1cc(F)cc(C#N)c1 (stereo not shown) [drawing 14] | CFI female mice | % Change in Body Weight vs controls | +78.10% |
| CCNCC(O)c1cc(F)cc(C#N)c1 (stereo not shown) [drawing 16] | CFI female mice | % Change in Body Weight vs controls | +18.8% |
| CCCC(C)NCC(O)c1cc(F)cc(C#N)c1 (stereo not shown) [drawing 15] | CFI female mice | % Change in Body Weight vs controls | +15.9% |

From here, focus on the item given below.
Write down the reported % Change in Body Weight vs controls (system: CFI female mice) of CC(C)(C)NCC(O)c1cc(F)cc(C#N)c1 (stereo not shown) [drawing 13]
+80.51%

----------
Assignment: determine reported IC50 for the given molecules.
biological target: beta-1 adrenergic receptor (Meleagris gallopavo, UniProt P07700); construct: Beta-1 adrenergic receptor membranes are isolated from turkey and rat erythrocytes; test: Beta-1 adrenergic activity, (H3) dihydroalprenolol radioligand binding to erythrocyte membranes; settings: (H3) DHA, room temperature (23° C.), one hour; read-out: β1 K-50 (concentration required to displace 50% radioactive ligand from binding sites of beta adrenergic receptors)
Sequence (P07700 whole entry): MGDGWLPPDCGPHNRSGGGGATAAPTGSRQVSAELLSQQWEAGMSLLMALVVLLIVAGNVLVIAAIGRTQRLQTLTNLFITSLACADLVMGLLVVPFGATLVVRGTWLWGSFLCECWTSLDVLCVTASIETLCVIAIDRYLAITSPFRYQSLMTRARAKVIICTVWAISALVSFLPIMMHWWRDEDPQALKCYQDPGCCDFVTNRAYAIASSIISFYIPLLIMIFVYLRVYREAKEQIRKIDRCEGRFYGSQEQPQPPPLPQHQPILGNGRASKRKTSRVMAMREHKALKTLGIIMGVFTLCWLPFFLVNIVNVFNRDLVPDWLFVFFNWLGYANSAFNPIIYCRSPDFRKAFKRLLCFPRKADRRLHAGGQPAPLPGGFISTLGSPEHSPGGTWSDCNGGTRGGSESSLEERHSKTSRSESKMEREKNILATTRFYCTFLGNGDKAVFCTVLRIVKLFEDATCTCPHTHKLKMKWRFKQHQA
One number for each entry, in µM.

Parameter requested: IC50. Apply to each item below.
1. CC(C)NCC(O)c1cc(F)cc(C#N)c1 (centres unmarked) [drawing 22]
2. CCCC(C)NCC(O)c1cc(F)cc(C#N)c1 (centres unmarked) [drawing 19]
3. CC(C)(C)NCC(O)c1cc(F)cc(C#N)c1 (centres unmarked) [drawing 23]
4. CCNCC(O)c1cc(F)cc(C#N)c1 (centres unmarked) [drawing 21]
5. CC(C)N(CC(O)c1cc(F)cc(C#N)c1)C(C)C (centres unmarked) [drawing 20]

12.3
2.2
16.6
3.04
2.95

----------
system: CFI female mice; experiment: Antilipogenic evaluation of test compounds - mouse study (fat pad and body weight, 12-day feeding); format: in vivo; settings: 100 ppm in diet, 12 days
measurement.label: % Reduction in Fat Pad Weight vs Controls (%)
Give bare numbers, in %.

Please review the following examples before continuing.
| molecule | result |
| --- | --- |
| CC(C)(C)NCC(O)c1cc(F)cc(C#N)c1 (stereo not shown) [drawing 13] | -29.65 |
| CCNCC(O)c1cc(F)cc(C#N)c1 (stereo not shown) [drawing 16] | -33.3 |
| CC(C)NCC(O)c1cc(F)cc(C#N)c1 (stereo not shown) [drawing 14] | -17.71 |

Enter measured % Reduction in Fat Pad Weight vs Controls, system CFI female mice, for the molecule shown: CCCC(C)NCC(O)c1cc(F)cc(C#N)c1 (stereo not shown) [drawing 15]
-15.5
